Data credit: patent US20080139613A1

- protocol.details: Rat pharmacokinetics after intravenous and oral dosing
- Assay type: in vivo
- condition: Alderley Park Han Wistar, whole blood; half life; male Han Wistar rat; intravenous 2 mg/kg; read-out: T½ (converted)
In this section we review reported half-life values for a set of molecules.
Express it in h; write the number only.

molecule: Cc1nnc(C(C)C)n1C1CCN(C(C)C[C@@H](c2cc(F)cc(F)c2)C2CCN(S(C)(=O)=O)CC2)CC1 (single isomer, unassigned)
half-life [h]: 2.7

With those in mind, consider the next molecule.
Lab book: half-life of CCc1nnc(C(C)C)n1C1CCN([C@H](C)C[C@@H](c2cc(F)cc(F)c2)C2CCN(S(C)(=O)=O)CC2)CC1 (single isomer, unassigned) noted as 4

* * *

In this section we review reported Vd values for a set of molecules.
- protocol.details: Rat pharmacokinetics after intravenous and oral dosing
- Format: in vivo
- condition: Alderley Park Han Wistar, whole blood; volume of distribution; male Han Wistar rat; intravenous 2 mg/kg; read-out: Vdss
Express it in L/kg; write the number only.

molecule: Cc1nnc(C(C)C)n1C1CCN(C(C)C[C@@H](c2cc(F)cc(F)c2)C2CCN(S(C)(=O)=O)CC2)CC1 (single isomer, unassigned)
reported.metric: Vd
meas.value: 4.9

With those in mind, consider the next molecule.
Lab book: Vd of CCc1nnc(C(C)C)n1C1CCN([C@H](C)C[C@@H](c2cc(F)cc(F)c2)C2CCN(S(C)(=O)=O)CC2)CC1 (single isomer, unassigned) noted as 4.1

* * *

- protocol.details: Rat pharmacokinetics after intravenous and oral dosing
- Format: in vivo
- condition: Alderley Park Han Wistar, whole blood; blood clearance; male Han Wistar rat; intravenous 2 mg/kg
reported.metric: clearance (mL/min/kg)
Express it in mL/min/kg; write the number only.

molecule: Cc1nnc(C(C)C)n1C1CCN(C(C)C[C@@H](c2cc(F)cc(F)c2)C2CCN(S(C)(=O)=O)CC2)CC1 (single isomer, unassigned) [Comparator Compound A]
units.label: mL/min/kg
meas.value: 37

With those in mind, consider the next molecule.
Lab book: clearance of CCc1nnc(C(C)C)n1C1CCN([C@H](C)C[C@@H](c2cc(F)cc(F)c2)C2CCN(S(C)(=O)=O)CC2)CC1 (single isomer, unassigned) noted as 18

* * *

- test.system: CCR5 (Homo sapiens, UniProt P51681)
- Construct: After 21 to 34 days culture, the membranes were prepared from the cells; endogenous in cells
- Sequence (P51681 whole entry): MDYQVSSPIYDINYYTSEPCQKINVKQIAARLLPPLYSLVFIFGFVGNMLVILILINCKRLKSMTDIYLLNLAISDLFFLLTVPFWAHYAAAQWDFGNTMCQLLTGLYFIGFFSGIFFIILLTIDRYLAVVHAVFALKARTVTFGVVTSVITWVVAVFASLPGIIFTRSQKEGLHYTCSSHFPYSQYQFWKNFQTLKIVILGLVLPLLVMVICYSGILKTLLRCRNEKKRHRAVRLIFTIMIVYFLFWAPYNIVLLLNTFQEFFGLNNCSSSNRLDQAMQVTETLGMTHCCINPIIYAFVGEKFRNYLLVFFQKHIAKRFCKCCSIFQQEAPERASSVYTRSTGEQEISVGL
- protocol.details: Displacement of radio-labelled CCR5 antagonist from Allo-T cell membranes
- condition: membranes of human allo-reactive T cells; 2 nM [3H] CCR5 antagonist; 2 hours at room temperature
- Experimental: The ability of the compound of the present invention to inhibit the binding of MIP-1β (CCL-4) was measured: An allo-reactive T cell line was generated by exposure of human peripheral blood mononuclear cells (PBMCs) to L-DR4/B7 fibroblasts (immobilised with glutaraldehyde fixation and irradiation) and subsequent expansion with anti-CD3 and IL-2 for 14 days. The resultant Allo-T cells were frozen. […]
In this section we review reported pIC50 values for a set of compounds.
# pIC50: negative log10 of molar concentration; output just the value

compound: CCc1nnc(C(C)C)n1C1CCN([C@H](C)C[C@@H](c2cc(F)cc(F)c2)C2CCN(S(C)(=O)=O)CC2)CC1 (single isomer, unassigned)
pIC50: 8.19

Lab book: pIC50 of Cc1nnc(C(C)C)n1C1CCN(C(C)C[C@@H](c2cc(F)cc(F)c2)C2CCN(S(C)(=O)=O)CC2)CC1 (single isomer, unassigned) noted as 7.49
